Values were extracted from patent US20260069689A1.

Listed next: entries and their corresponding koff.
experimental.system: SARS-COV-2 RBD-MMH (SARS-CoV-2)
assay.overview: SPR 37C, run with dissociation at pH 5.0
Could you give me the number in s⁻¹? Just the number is fine.

binder	koff [s⁻¹]
mAb15150 (antibody, V domains shown) VH: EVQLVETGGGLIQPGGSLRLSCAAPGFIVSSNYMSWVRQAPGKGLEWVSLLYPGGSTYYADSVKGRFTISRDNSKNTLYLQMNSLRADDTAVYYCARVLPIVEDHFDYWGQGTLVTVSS VL: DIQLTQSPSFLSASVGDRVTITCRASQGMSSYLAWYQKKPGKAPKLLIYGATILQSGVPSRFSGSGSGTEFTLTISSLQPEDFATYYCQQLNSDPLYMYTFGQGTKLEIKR	1e-05
mAb15166 (antibody, V domains shown) VH: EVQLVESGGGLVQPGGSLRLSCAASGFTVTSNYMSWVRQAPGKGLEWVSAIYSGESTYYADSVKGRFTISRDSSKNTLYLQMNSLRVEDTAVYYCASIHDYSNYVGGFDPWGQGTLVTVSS VL: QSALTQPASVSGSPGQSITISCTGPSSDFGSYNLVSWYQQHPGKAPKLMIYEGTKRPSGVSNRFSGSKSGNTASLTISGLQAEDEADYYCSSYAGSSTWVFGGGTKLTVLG	0.035
mAb15158 (antibody, V domains shown) VH: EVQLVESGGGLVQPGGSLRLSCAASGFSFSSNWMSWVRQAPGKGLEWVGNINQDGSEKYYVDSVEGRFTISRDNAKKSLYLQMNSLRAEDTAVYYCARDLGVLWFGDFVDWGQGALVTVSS VL: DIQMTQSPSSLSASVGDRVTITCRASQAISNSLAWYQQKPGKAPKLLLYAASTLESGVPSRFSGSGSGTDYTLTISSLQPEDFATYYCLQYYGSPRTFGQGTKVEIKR	9.7e-05
mAb15151 (antibody, V domains shown) VH: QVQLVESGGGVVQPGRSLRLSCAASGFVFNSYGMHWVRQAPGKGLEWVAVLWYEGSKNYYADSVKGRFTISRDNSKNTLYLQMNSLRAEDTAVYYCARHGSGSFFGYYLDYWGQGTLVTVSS VL: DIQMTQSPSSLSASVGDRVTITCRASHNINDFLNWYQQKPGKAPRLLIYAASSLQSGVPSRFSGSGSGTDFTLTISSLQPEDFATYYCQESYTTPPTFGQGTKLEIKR	0.00439

Next:
*Q* Please supply the value of reported koff for the item mAb15164 (antibody, V domains shown) VH: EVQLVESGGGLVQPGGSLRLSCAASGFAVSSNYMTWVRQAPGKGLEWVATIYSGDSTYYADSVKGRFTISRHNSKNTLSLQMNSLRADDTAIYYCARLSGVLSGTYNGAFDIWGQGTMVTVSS VL: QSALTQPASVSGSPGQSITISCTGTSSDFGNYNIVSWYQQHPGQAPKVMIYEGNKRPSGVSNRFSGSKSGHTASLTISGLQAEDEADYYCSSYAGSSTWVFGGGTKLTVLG
*A* 0.002
